target: α-glucosidase from Saccharomyces cerevisiae (Saccharomyces cerevisiae, UniProt P53341); construct: purchased Sigma Aldrich (St. Louis, MO, USA); assay: in vitro assay of α-glucosidase enzyme inhibition (p-nitrophenyl α-D-glucopyranoside substrate); format: biochemical
Sequence (P53341 whole entry): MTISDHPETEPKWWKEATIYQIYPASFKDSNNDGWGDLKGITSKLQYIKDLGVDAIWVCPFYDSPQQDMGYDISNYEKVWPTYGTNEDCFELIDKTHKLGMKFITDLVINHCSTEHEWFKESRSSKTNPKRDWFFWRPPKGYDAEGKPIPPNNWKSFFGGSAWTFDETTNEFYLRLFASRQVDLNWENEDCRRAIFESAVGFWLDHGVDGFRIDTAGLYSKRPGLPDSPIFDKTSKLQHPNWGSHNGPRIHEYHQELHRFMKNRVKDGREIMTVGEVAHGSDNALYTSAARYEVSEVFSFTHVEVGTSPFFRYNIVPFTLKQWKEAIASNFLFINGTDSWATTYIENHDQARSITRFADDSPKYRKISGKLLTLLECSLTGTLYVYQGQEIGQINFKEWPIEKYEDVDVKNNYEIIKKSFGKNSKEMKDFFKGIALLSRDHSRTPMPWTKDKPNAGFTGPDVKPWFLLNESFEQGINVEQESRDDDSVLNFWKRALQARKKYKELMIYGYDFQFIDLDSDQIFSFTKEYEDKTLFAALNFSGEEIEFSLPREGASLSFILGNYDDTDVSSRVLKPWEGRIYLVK
READOUT_KIND: pIC50
// pIC50 here means minus log10 of the molar concentration (mol/L)

// C[C@@H]1O[C@@H](Oc2c(-c3ccc(O)c(O)c3)oc3cc(O)cc(O)c3c2=O)[C@H](O)[C@H](O)[C@H]1O [Compound 7, quercitrin] : pIC50 value = 3.43

Item: C[C@H]1[C@H](C)CC[C@]2(C(=O)O)CC[C@]3(C)C(=CC[C@@H]4[C@@]5(C)CC[C@H](O)C(C)(C)[C@@H]5CC[C@]43C)[C@H]12 [Compound 4, ursolic acid] | pIC50: 5.51

----------
Please provide measured IC50 for the entries that follow.
biological target: α-glucosidase from Saccharomyces cerevisiae (Saccharomyces cerevisiae, UniProt P53341); construct: purchased Sigma Aldrich (St. Louis, MO, USA); assay: in vitro assay of α-glucosidase enzyme inhibition (p-nitrophenyl α-D-glucopyranoside substrate); type: biochemical; details: mean ± S.D, triplicate; 37 °C, 30 min; read-out: α-Glucosidase inhibitory activity IC50

The compound listed as CC[C@H](CC[C@@H](C)[C@H]1CC[C@H]2[C@@H]3CC=C4C[C@@H](O)CC[C@]4(C)[C@H]3CC[C@]12C)C(C)C shows IC50 equal to > 617 µM

So for CC[C@H](CC[C@@H](C)[C@H]1CC[C@H]2[C@@H]3CC=C4C[C@@H](O[C@@H]5O[C@H](CO)[C@@H](O)[C@H](O)[C@H]5O)CC[C@]4(C)[C@H]3CC[C@]12C)C(C)C , the logged IC50 turned out to be > 444 µM

IC50 for COC(=O)/C=C/c1ccc(O)cc1 [Compound 13, methyl trans-p-coumarate] is > 1440 µM

get_value(item= CC1=C(O)C(=O)OC1C (stereo not drawn) , readout=IC50) returns > 2000 µM

According to the records, this compound CCCCCCCCCCCCCCCC(=O)OC[C@H]1O[C@@H](O[C@H]2CC[C@@]3(C)C(=CCC4C3CC[C@@]3(C)C4CC[C@@H]3[C@H](C)/C=C/[C@@H](CC)C(C)C)C2)[C@H](O)[C@@H](O)[C@@H]1O (stereo partly drawn) displays IC50 of > 315 µM

IC50 for CC1=CC(=O)CC(C)(C)[C@H]1/C=C/[C@@H](C)O[C@@H]1O[C@H](CO[C@@H]2OC[C@](O)(CO)[C@H]2O)[C@@H](O)[C@H](O)[C@H]1O is > 509 µM

CC(=O)C=C=C1C(C)(C)C[C@H](O)C[C@]1(C)O has a reported IC50 of > 1140 µM

Summary for this compound, CC1OC(Oc2c(-c3ccc(O)c(OC4OC(CO)C(O)C(O)C4O)c3)oc3cc(O)cc(O)c3c2=O)C(O)C(O)C1O (stereo not drawn) [Compound 8, quercetin-3-rhamnoside-3′-glucoside] : IC50 is > 419 µM

Please fill in: IC50 reported for CC1=CC(=O)CC(C)(C)[C@H]1/C=C/[C@@H](C)O = > 1230 µM
